Assay Details: RP-TLC lipophilicity (RM0, log PTLC, C0), silica gel RP-18F254, acetone/TRIS buffer pH 7.4
Assay type: physicochemical
Condition Context: chromatography hydrophobic index, C0 = −RM0/b
Description: In connection with this, in the next stage of the study, the parameters of lipophilicity of the tested compounds were determined experimentally. […] The parameter RM0 can be correlated to an experimental log P lipophilicity parameter of chemical molecules (log PTLC) by applying a calibration curve. […] After calculating the RM and RM0 values, the dependence of the log Plit parameter on the experimentally obtained RM0 values for standards was determined (Table 2). […]
Output Met for C0 not less than 80; output Not met otherwise.

[ask] Does the reported C0 for CN(C)CCCN1c2cc(Cl)ccc2Sc2cc3ccccc3nc21 fall at or above the 80 mark?
[reply] Not met

[ask] Does the reported C0 for Clc1ccc2c(c1)N(CCN1CCCCC1)c1nc3ccccc3cc1S2 fall at or above the 80 mark?
[reply] Not met

[ask] Does the reported C0 for CCOC(=O)NCCCCN1c2cc(Cl)ccc2Sc2cc3ccccc3nc21 fall at or above the 80 mark?
[reply] Met

[ask] Does the reported C0 for O=C1c2ccccc2C(=O)N1CCCN1c2cc(Cl)ccc2Sc2cc3ccccc3nc21 fall at or above the 80 mark?
[reply] Met

[ask] Does the reported C0 for CCN(CC)CCN1c2cc(Cl)ccc2Sc2cc3ccccc3nc21 fall at or above the 80 mark?
[reply] Not met

[ask] Does the reported C0 for O=C(NCCCl)NCCCCN1c2cc(Cl)ccc2Sc2cc3ccccc3nc21 fall at or above the 80 mark?
[reply] Not met

[ask] Does the reported C0 for CN(C)CCCN1c2ccccc2Sc2ccc(Cl)cc21 [compound 18, chlorpromazine, reference compound] fall at or above the 80 mark?
[reply] Not met

[ask] Does the reported C0 for O=C1c2ccccc2C(=O)N1CCCCN1c2cc(Cl)ccc2Sc2cc3ccccc3nc21 fall at or above the 80 mark?
[reply] Met

[ask] Does the reported C0 for CS(=O)(=O)NCCCN1c2cc(Cl)ccc2Sc2cc3ccccc3nc21 fall at or above the 80 mark?
[reply] Not met

[ask] Does the reported C0 for CC(=O)NCCCN1c2cc(Cl)ccc2Sc2cc3ccccc3nc21 fall at or above the 80 mark?
[reply] Not met

[ask] Does the reported C0 for CS(=O)(=O)NCCCCN1c2cc(Cl)ccc2Sc2cc3ccccc3nc21 fall at or above the 80 mark?
[reply] Not met

[ask] Does the reported C0 for CN1CCCCC1CCN1c2cc(Cl)ccc2Sc2cc3ccccc3nc21 (stereo not drawn) fall at or above the 80 mark?
[reply] Met

[ask] Does the reported C0 for CC(=O)NCCCCN1c2cc(Cl)ccc2Sc2cc3ccccc3nc21 fall at or above the 80 mark?
[reply] Not met

[ask] Does the reported C0 for Clc1ccc2c(c1)N(CCN1CCCC1)c1nc3ccccc3cc1S2 fall at or above the 80 mark?
[reply] Not met

[ask] Does the reported C0 for O=C(NCCCl)NCCCN1c2cc(Cl)ccc2Sc2cc3ccccc3nc21 fall at or above the 80 mark?
[reply] Not met

----------
Task for the reader: assign each of the following compounds its reported log PTLC.
Assay Details: RP-TLC lipophilicity (RM0, log PTLC, C0), silica gel RP-18F254, acetone/TRIS buffer pH 7.4
Assay type: physicochemical
Condition Context: from RM0 by calibration curve log PTLC = 1.2862RM0 + 0.2061

[ask] Please indicate log PTLC recorded for CN(C)CCCN1c2cc(Cl)ccc2Sc2cc3ccccc3nc21
[reply] 5.05

[ask] Please indicate log PTLC recorded for CCOC(=O)NCCCN1c2cc(Cl)ccc2Sc2cc3ccccc3nc21
[reply] 5.04

[ask] Please indicate log PTLC recorded for Clc1ccc(C(c2ccc(Cl)cc2)C(Cl)(Cl)Cl)cc1 [p,p’-DDT, reference compound]
[reply] 6.24

[ask] Please indicate log PTLC recorded for CC(=O)Nc1ccccc1 [acetanilide, reference compound]
[reply] 1.21

[ask] Please indicate log PTLC recorded for CN1CCCCC1CCN1c2cc(Cl)ccc2Sc2cc3ccccc3nc21 (centres unmarked)
[reply] 5.61

----------
Assay Details: RP-TLC lipophilicity (RM0, log PTLC, C0), silica gel RP-18F254, acetone/TRIS buffer pH 7.4
Format: physicochemical
Condition Context: RP-TLC, RM extrapolated to 0% acetone, TRIS buffer pH 7.4
Task for the reader: assign each of the following molecules its reported RM0.

[ask] Please indicate RM0 recorded for Clc1ccc(C(c2ccc(Cl)cc2)C(Cl)(Cl)Cl)cc1 [p,p’-DDT, reference compound]
[reply] 4.69

[ask] Please indicate RM0 recorded for CCOC(=O)NCCCN1c2cc(Cl)ccc2Sc2cc3ccccc3nc21 [compound 8]
[reply] 3.76

[ask] Please indicate RM0 recorded for O=C(NCCCl)NCCCCN1c2cc(Cl)ccc2Sc2cc3ccccc3nc21 [compound 15]
[reply] 3.59

[ask] Please indicate RM0 recorded for O=C1c2ccccc2C(=O)N1CCCN1c2cc(Cl)ccc2Sc2cc3ccccc3nc21 [compound 6]
[reply] 4.12

[ask] Please indicate RM0 recorded for CS(=O)(=O)NCCCN1c2cc(Cl)ccc2Sc2cc3ccccc3nc21 [compound 10]
[reply] 3.37

[ask] Please indicate RM0 recorded for O=C(O)c1ccccc1 [benzoic acid, reference compound]
[reply] 1.16

[ask] Please indicate RM0 recorded for O=C1c2ccccc2C(=O)N1CCCCN1c2cc(Cl)ccc2Sc2cc3ccccc3nc21 [compound 12]
[reply] 4.41

[ask] Please indicate RM0 recorded for Clc1ccc2c(c1)N(CCN1CCCC1)c1nc3ccccc3cc1S2 [compound 3]
[reply] 3.96

[ask] Please indicate RM0 recorded for CCN(CC)CCN1c2cc(Cl)ccc2Sc2cc3ccccc3nc21 [compound 1]
[reply] 3.98

[ask] Please indicate RM0 recorded for CC(=O)Nc1ccccc1 [acetanilide, reference compound]
[reply] 0.78

[ask] Please indicate RM0 recorded for CCOC(=O)NCCCCN1c2cc(Cl)ccc2Sc2cc3ccccc3nc21 [compound 14]
[reply] 4.06

[ask] Please indicate RM0 recorded for Clc1ccc2c(c1)N(CCN1CCCCC1)c1nc3ccccc3cc1S2 [compound 4]
[reply] 4.01

[ask] Please indicate RM0 recorded for CC(=O)NCCCN1c2cc(Cl)ccc2Sc2cc3ccccc3nc21 [compound 7]
[reply] 2.72

[ask] Please indicate RM0 recorded for CS(=O)(=O)NCCCCN1c2cc(Cl)ccc2Sc2cc3ccccc3nc21 [compound 16]
[reply] 3.65

[ask] Please indicate RM0 recorded for Cc1ccc(S(=O)(=O)NCCCCN2c3cc(Cl)ccc3Sc3cc4ccccc4nc32)cc1 [compound 17]
[reply] 4.68

[ask] Please indicate RM0 recorded for Cc1ccc(S(=O)(=O)NCCCN2c3cc(Cl)ccc3Sc3cc4ccccc4nc32)cc1 [compound 11]
[reply] 4.59

[ask] Please indicate RM0 recorded for O=C(NCCCl)NCCCN1c2cc(Cl)ccc2Sc2cc3ccccc3nc21 [compound 9]
[reply] 3.47

[ask] Please indicate RM0 recorded for CN(C)CCCN1c2ccccc2Sc2ccc(Cl)cc21 [compound 18, chlorpromazine, reference compound]
[reply] 3.41

[ask] Please indicate RM0 recorded for CC(=O)NCCCCN1c2cc(Cl)ccc2Sc2cc3ccccc3nc21 [compound 13]
[reply] 3.11

[ask] Please indicate RM0 recorded for CN(C)CCCN1c2cc(Cl)ccc2Sc2cc3ccccc3nc21 [compound 2]
[reply] 3.77

[ask] Please indicate RM0 recorded for CN1CCCCC1CCN1c2cc(Cl)ccc2Sc2cc3ccccc3nc21 (stereo not drawn) [compound 5]
[reply] 4.20

----------
Assay Details: RP-TLC lipophilicity (RM0, log PTLC, C0), silica gel RP-18F254, acetone/TRIS buffer pH 7.4
Assay type: physicochemical
Condition Context: from RM0 by calibration curve log PTLC = 1.2862RM0 + 0.2061
Output true for chromatographic logP not less than 5; output false otherwise.

[ask] Does the reported chromatographic logP for CC(=O)NCCCCN1c2cc(Cl)ccc2Sc2cc3ccccc3nc21 [compound 13] fall at or above the 5 mark?
[reply] false

[ask] Does the reported chromatographic logP for Cc1ccc(S(=O)(=O)NCCCCN2c3cc(Cl)ccc3Sc3cc4ccccc4nc32)cc1 [compound 17] fall at or above the 5 mark?
[reply] true

[ask] Does the reported chromatographic logP for O=C(NCCCl)NCCCCN1c2cc(Cl)ccc2Sc2cc3ccccc3nc21 [compound 15] fall at or above the 5 mark?
[reply] false

[ask] Does the reported chromatographic logP for Cc1ccc(S(=O)(=O)NCCCN2c3cc(Cl)ccc3Sc3cc4ccccc4nc32)cc1 [compound 11] fall at or above the 5 mark?
[reply] true

[ask] Does the reported chromatographic logP for CC(=O)NCCCN1c2cc(Cl)ccc2Sc2cc3ccccc3nc21 [compound 7] fall at or above the 5 mark?
[reply] false

[ask] Does the reported chromatographic logP for CS(=O)(=O)NCCCN1c2cc(Cl)ccc2Sc2cc3ccccc3nc21 [compound 10] fall at or above the 5 mark?
[reply] false

[ask] Does the reported chromatographic logP for CN(C)CCCN1c2ccccc2Sc2ccc(Cl)cc21 [compound 18, chlorpromazine, reference compound] fall at or above the 5 mark?
[reply] false

[ask] Does the reported chromatographic logP for Clc1ccc2c(c1)N(CCN1CCCC1)c1nc3ccccc3cc1S2 [compound 3] fall at or above the 5 mark?
[reply] true

[ask] Does the reported chromatographic logP for Clc1ccc2c(c1)N(CCN1CCCCC1)c1nc3ccccc3cc1S2 [compound 4] fall at or above the 5 mark?
[reply] true

[ask] Does the reported chromatographic logP for CCN(CC)CCN1c2cc(Cl)ccc2Sc2cc3ccccc3nc21 [compound 1] fall at or above the 5 mark?
[reply] true

[ask] Does the reported chromatographic logP for O=C1c2ccccc2C(=O)N1CCCCN1c2cc(Cl)ccc2Sc2cc3ccccc3nc21 [compound 12] fall at or above the 5 mark?
[reply] true

[ask] Does the reported chromatographic logP for CCOC(=O)NCCCCN1c2cc(Cl)ccc2Sc2cc3ccccc3nc21 [compound 14] fall at or above the 5 mark?
[reply] true

[ask] Does the reported chromatographic logP for O=C(NCCCl)NCCCN1c2cc(Cl)ccc2Sc2cc3ccccc3nc21 [compound 9] fall at or above the 5 mark?
[reply] false

[ask] Does the reported chromatographic logP for O=C1c2ccccc2C(=O)N1CCCN1c2cc(Cl)ccc2Sc2cc3ccccc3nc21 [compound 6] fall at or above the 5 mark?
[reply] true

Values from paper PMC12384454
